Hey, just so you know, these numbers are from ChEMBL document CHEMBL1137720.

tested on: Rattus norvegicus; experiment: Antiinflammatory activity in Sprague-Dawley rat assessed as inhibition of carrageenan-induced paw edema after 3 hrs; assay type: functional
// inhibition (INH) lookup, one value per entry
Entry rule: numbers only, all in %.

Example entries begin here.
>  <Smiles>
O=c1[nH]c(=S)[nH]c2nc3c(c(-c4ccccc4)c12)CCC/C3=C\c1ccccc1

>  <inhibition (INH) / %>
27.54

$$$$
>  <Smiles>
CC(=O)OC[C@@H](OC(C)=O)[C@@H](OC(C)=O)[C@H](/C=N/Nc1nc2nc3c(c(-c4ccc(Cl)cc4)c2c(=O)n1OC(C)=O)CCC/C3=C\c1ccc(Cl)cc1)OC(C)=O

>  <inhibition (INH) / %>
26.09

$$$$
>  <Smiles>
CC(=O)OC[C@@H](OC(C)=O)[C@H](OC(C)=O)[C@H](OC(C)=O)[C@@H](OC(C)=O)c1n[nH]c2nc3nc4c(c(-c5ccc(Cl)cc5)c3c(=O)n12)CCC/C4=C\c1ccc(Cl)cc1

>  <inhibition (INH) / %>
18.48

$$$$

Now look at this entry.
### Prompt Notebook entry, Rattus norvegicus assay: inhibition (INH) of O=c1c2c(-c3ccc(Cl)cc3)c3c(nc2nc2[nH]nc([C@H](O)[C@H](O)[C@H](O)CO)n12)/C(=C/c1ccc(Cl)cc1)CCC3 = ?
### Response 39.06
